Cited source for all entries: patent US20080279775A1

Where a name gives a salt, the structure may show the parent alone.
quantity_kind: melting point

> print(dat)
                                   compound  observed.result
1  Fc1ccc(C(N[C@H]2C[C@H]3CC[C@@H](C2)N3CCc2c[nH]c3ccccc23)c2ccc(F)cc2)cc1 (as salt: oxalate)    178 to 180 °C
2  Fc1ccc(C(N[C@H]2C[C@H]3CC[C@@H](C2)N3)c2ccc(F)cc2)cc1 (as salt: oxalate)    138 to 140 °C
3  Fc1ccc(C(N[C@H]2C[C@H]3CC[C@@H](C2)N3CCCCc2ccccc2)c2ccc(F)cc2)cc1 (as salt: oxalate)    194 to 196 °C
4  CN(C(c1ccc(F)cc1)c1ccc(F)cc1)[C@H]1C[C@H]2CC[C@@H](C1)N2C (as salt: oxalate)    227 to 228 °C

---

Entries annotated with measured Reduction of binding affinity at the DAT compared to 2a
system: DAT (Rattus norvegicus, UniProt P23977)
Construct: their brains removed to an ice-cooled dish for dissection of the caudate putamen; from tissue; host or cells: rat caudate putamen membranes (fresh homogenates)
Sequence (P23977 whole entry): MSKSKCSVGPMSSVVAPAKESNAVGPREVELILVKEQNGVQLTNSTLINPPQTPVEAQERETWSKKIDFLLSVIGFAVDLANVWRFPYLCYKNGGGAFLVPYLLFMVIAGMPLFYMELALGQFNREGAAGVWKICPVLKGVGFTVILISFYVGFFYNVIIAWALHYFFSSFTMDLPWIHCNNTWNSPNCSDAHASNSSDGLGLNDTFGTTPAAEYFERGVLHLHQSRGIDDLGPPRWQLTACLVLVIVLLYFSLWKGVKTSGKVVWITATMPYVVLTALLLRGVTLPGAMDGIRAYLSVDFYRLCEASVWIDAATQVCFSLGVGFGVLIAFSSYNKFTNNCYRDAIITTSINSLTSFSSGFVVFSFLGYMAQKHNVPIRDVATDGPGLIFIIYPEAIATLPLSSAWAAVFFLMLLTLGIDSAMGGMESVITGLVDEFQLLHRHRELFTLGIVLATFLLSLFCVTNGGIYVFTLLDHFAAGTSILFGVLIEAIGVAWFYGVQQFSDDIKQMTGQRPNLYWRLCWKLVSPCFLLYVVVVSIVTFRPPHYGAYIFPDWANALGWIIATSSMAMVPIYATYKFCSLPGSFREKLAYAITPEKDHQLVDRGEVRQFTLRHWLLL
test_summary: Dopamine transporter binding assay, displacement of [3H]WIN 35,428
conditions_used: lower affinity than 2a
quantity_kind: Reduction of binding affinity at the DAT compared to 2a (fold)

> print(dat)
                                   compound  observed.result
1  Fc1ccc(C(N[C@H]2C[C@H]3CC[C@@H](C2)N3CCc2c[nH]c3ccccc23)c2ccc(F)cc2)cc1 [Compound 2l]                6
2  CN(C(c1ccc(F)cc1)c1ccc(F)cc1)[C@H]1C[C@H]2CC[C@@H](C1)N2C [Compound 2c]               11
3  CN1[C@@H]2CC[C@H]1C[C@H](NC(c1ccc(F)cc1)c1ccc(F)cc1)C2 [Compound 2b]               58

---

system: SERT (Rattus norvegicus, UniProt P31652)
Construct: Membranes from frozen rat midbrain were homogenized; from tissue; host or cells: frozen rat midbrain membranes
Sequence (P31652 whole entry): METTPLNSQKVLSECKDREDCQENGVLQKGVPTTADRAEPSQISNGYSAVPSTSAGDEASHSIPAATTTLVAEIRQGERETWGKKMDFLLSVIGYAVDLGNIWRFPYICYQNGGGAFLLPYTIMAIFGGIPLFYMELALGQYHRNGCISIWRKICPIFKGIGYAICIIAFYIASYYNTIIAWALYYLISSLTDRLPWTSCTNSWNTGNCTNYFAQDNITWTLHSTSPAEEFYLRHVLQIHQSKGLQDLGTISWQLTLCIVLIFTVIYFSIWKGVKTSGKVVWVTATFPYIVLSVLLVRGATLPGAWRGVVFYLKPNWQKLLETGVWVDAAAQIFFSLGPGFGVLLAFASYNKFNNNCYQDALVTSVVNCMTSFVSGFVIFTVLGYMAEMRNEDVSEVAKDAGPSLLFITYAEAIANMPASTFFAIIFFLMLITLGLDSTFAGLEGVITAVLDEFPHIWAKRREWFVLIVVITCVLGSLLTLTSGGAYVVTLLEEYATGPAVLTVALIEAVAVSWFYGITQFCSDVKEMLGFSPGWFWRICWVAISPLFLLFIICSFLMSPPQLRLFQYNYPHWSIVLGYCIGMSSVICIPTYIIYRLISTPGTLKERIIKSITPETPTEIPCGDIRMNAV
test_summary: [3H]Citalopram binding assay
conditions_used: Ki ratio
Procedure: In order to understand the neurochemical and behavioral properties of the compounds of the present invention, exemplary benztropinamine analogs were evaluated for displacement of [^3H]WIN 35,428 (2β-carbomethoxy-3β-(4-fluorophenyl)tropane) binding to the DAT in rat caudate-putamen. […] [^3H]Citalopram Binding Assay. […] The filters were washed twice with 5 ml cold buffer, transferred to scintillation vials to which Beckman Ready Safe was added. […]
// label = label 1 if Binding selectivity SERT/DAT is not less than 100, otherwise label 0

> print(dat)
                                   compound    label
1  CN1[C@@H]2CC[C@H]1C[C@@H](NC(c1ccc(Cl)c(Cl)c1)c1ccc(Cl)c(Cl)c1)C2  label 1
2  CN1[C@@H]2CC[C@H]1C[C@@H](NC(c1ccccc1)c1ccc(Cl)cc1)C2 (stereo partly shown)  label 1
3  C=CCN1[C@@H]2CC[C@H]1C[C@@H](NC(c1ccc(F)cc1)c1ccc(F)cc1)C2  label 1
4  CN1[C@@H]2CC[C@H]1C[C@H](NC(c1ccc(F)cc1)c1ccc(F)cc1)C2  label 0
5  CCCCN1[C@@H]2CC[C@H]1C[C@@H](NC(c1ccc(F)cc1)c1ccc(F)cc1)C2  label 1
6  Fc1ccc(C(N[C@H]2C[C@H]3CC[C@@H](C2)N3CCCCc2ccccc2)c2ccc(F)cc2)cc1  label 0
7  CN1[C@@H]2CC[C@H]1C[C@@H](NC(c1ccc(F)cc1)c1ccc(F)cc1)C2  label 1

---

system: DAT (Rattus norvegicus, UniProt P23977)
pKi: −log10 of the molar value.
// label = Satisfied if pKi is not less than 8, otherwise Not satisfied

> print(dat)
                                   compound          label
1  C=CCN1[C@@H]2CC[C@H]1C[C@@H](NC(c1ccc(F)cc1)c1ccc(F)cc1)C2 [Compound 2h]  Not satisfied
2  O=C(CCN1[C@@H]2CC[C@H]1C[C@@H](NC(c1ccc(F)cc1)c1ccc(F)cc1)C2)Nc1ccccc1 [Compound 2m]      Satisfied
3  CN1[C@@H]2CC[C@H]1C[C@@H](NC(c1ccccc1)c1ccc(Cl)cc1)C2 (stereo partly shown) [Compound 2e]  Not satisfied

---

system: muscarinic M1 receptor (Rattus norvegicus)
Construct: Membranes from frozen rat brains excluding cerebellum were thawed in ice-cold buffer; from tissue; host or cells: frozen rat brain (excluding cerebellum) membranes
Sequence (P08482 whole entry): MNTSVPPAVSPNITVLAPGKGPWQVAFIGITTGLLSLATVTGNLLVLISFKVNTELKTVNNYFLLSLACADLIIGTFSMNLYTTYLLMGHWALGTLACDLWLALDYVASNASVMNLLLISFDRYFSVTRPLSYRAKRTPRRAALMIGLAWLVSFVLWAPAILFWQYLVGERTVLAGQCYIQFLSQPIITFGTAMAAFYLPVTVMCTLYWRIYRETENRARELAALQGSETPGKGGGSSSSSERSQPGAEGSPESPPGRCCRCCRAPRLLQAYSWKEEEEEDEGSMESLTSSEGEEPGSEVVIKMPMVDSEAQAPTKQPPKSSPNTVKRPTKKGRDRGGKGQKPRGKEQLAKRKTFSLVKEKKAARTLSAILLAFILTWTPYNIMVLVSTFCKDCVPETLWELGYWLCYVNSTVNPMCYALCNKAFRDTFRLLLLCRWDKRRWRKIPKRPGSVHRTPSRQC
test_summary: [3H]Pirenzepine binding assay
conditions_used: rat brain membranes excluding cerebellum; read-out: M1 [3H]pirenzepine Ki ± SEM
Entries annotated with measured Ki
quantity_kind: Ki (nM)

> print(dat)
                                   compound  observed.result
1  CN1[C@@H]2CC[C@H]1C[C@@H](NC(c1ccccc1)c1ccc(Cl)cc1)C2 (stereo partly shown)              9.3
2  CCCCN1[C@@H]2CC[C@H]1C[C@@H](NC(c1ccc(F)cc1)c1ccc(F)cc1)C2              454
3  NCCN1[C@@H]2CC[C@H]1C[C@@H](NC(c1ccc(F)cc1)c1ccc(F)cc1)C2             2110
4  CN1[C@@H]2CC[C@H]1C[C@@H](NC(c1ccc(Cl)c(Cl)c1)c1ccc(Cl)c(Cl)c1)C2             17.8

---

Entries annotated with measured Ki
system: SERT (Rattus norvegicus, UniProt P31652)
Construct: Membranes from frozen rat midbrain were homogenized; from tissue; host or cells: frozen rat midbrain membranes
test_summary: [3H]Citalopram binding assay
conditions_used: rat midbrain membranes; read-out: SERT [3H]citalopram Ki ± SEM
quantity_kind: Ki

> print(dat)
                                   molecule  observed.result
1  CN1[C@@H]2CC[C@H]1C[C@@H](NC(c1ccccc1)c1ccc(Cl)cc1)C2 (stereo partly drawn)          13.6 µM
2  CCCCN1[C@@H]2CC[C@H]1C[C@@H](NC(c1ccc(F)cc1)c1ccc(F)cc1)C2          2.64 µM
3  Fc1ccc(C(N[C@H]2C[C@H]3CC[C@@H](C2)N3)c2ccc(F)cc2)cc1          4.15 µM
4  C=CCN1[C@@H]2CC[C@H]1C[C@@H](NC(c1ccc(F)cc1)c1ccc(F)cc1)C2          3.92 µM
5  CN1[C@@H]2CC[C@H]1C[C@@H](NC(c1ccc(F)cc1)c1ccc(F)cc1)C2          8.68 µM
6  CN1[C@@H]2CC[C@H]1C[C@@H](NC(c1ccc(Cl)c(Cl)c1)c1ccc(Cl)c(Cl)c1)C2          3.01 µM

---

system: SERT (Rattus norvegicus, UniProt P31652)
Construct: Membranes from frozen rat midbrain were homogenized; from tissue; host or cells: frozen rat midbrain membranes
test_summary: [3H]Citalopram binding assay
conditions_used: rat midbrain membranes; read-out: SERT [3H]citalopram Ki ± SEM
quantity_kind: Ki (nM)

> print(dat)
                                smiles.text  quantity.kind  observed.result
1  Fc1ccc(C(N[C@H]2C[C@H]3CC[C@@H](C2)N3CCc2c[nH]c3ccccc23)c2ccc(F)cc2)cc1             Ki              347
2  Fc1ccc(C(N[C@H]2C[C@H]3CC[C@@H](C2)N3CCCCc2ccccc2)c2ccc(F)cc2)cc1             Ki              502
3  CN1[C@@H]2CC[C@H]1C[C@@H](NC(c1ccc(Cl)cc1)c1ccc(Cl)cc1)C2             Ki             4180
4  O=C(CCN1[C@@H]2CC[C@H]1C[C@@H](NC(c1ccc(F)cc1)c1ccc(F)cc1)C2)Nc1ccccc1             Ki              608

---

The compounds below have reported pKi for DAT (Rattus norvegicus).
pKi: −log10 of the molar value.
quantity_kind: pKi

> print(dat)
                                smiles.text  observed.result
1  CN(C(c1ccc(F)cc1)c1ccc(F)cc1)[C@H]1C[C@H]2CC[C@@H](C1)N2C             6.91
2  CCCCN1[C@@H]2CC[C@H]1C[C@@H](NC(c1ccc(F)cc1)c1ccc(F)cc1)C2             7.67
3  CN1[C@@H]2CC[C@H]1C[C@@H](NC(c1ccc(Cl)c(Cl)c1)c1ccc(Cl)c(Cl)c1)C2             8.27
4  CN1[C@@H]2CC[C@H]1C[C@H](NC(c1ccc(F)cc1)c1ccc(F)cc1)C2             6.18

---

system: muscarinic M1 receptor (Rattus norvegicus)
Construct: Membranes from frozen rat brains excluding cerebellum were thawed in ice-cold buffer; from tissue; host or cells: frozen rat brain (excluding cerebellum) membranes
test_summary: [3H]Pirenzepine binding assay
conditions_used: Ki ratio
// label = 1.0 if Binding selectivity M1/DAT is not less than 3, otherwise 0.0

> print(dat)
                                   molecule                                    system  label
1  CN(C(c1ccc(F)cc1)c1ccc(F)cc1)[C@H]1C[C@H]2CC[C@@H](C1)N2C  muscarinic M1 receptor (Rattus norvegicus)    0.0
2  CCCCN1[C@@H]2CC[C@H]1C[C@@H](NC(c1ccc(F)cc1)c1ccc(F)cc1)C2  muscarinic M1 receptor (Rattus norvegicus)    1.0
3  Fc1ccc(C(N[C@H]2C[C@H]3CC[C@@H](C2)N3CCCCc2ccccc2)c2ccc(F)cc2)cc1  muscarinic M1 receptor (Rattus norvegicus)    1.0
4  C=CCN1[C@@H]2CC[C@H]1C[C@@H](NC(c1ccc(F)cc1)c1ccc(F)cc1)C2  muscarinic M1 receptor (Rattus norvegicus)    1.0
5  CN1[C@@H]2CC[C@H]1C[C@@H](NC(c1ccc(F)cc1)c1ccc(F)cc1)C2  muscarinic M1 receptor (Rattus norvegicus)    0.0
6  Fc1ccc(C(N[C@H]2C[C@H]3CC[C@@H](C2)N3)c2ccc(F)cc2)cc1  muscarinic M1 receptor (Rattus norvegicus)    1.0
7  CN1[C@@H]2CC[C@H]1C[C@@H](NC(c1ccccc1)c1ccc(Cl)cc1)C2 (stereo partly shown)  muscarinic M1 receptor (Rattus norvegicus)    0.0
8  CN1[C@@H]2CC[C@H]1C[C@H](NC(c1ccc(F)cc1)c1ccc(F)cc1)C2  muscarinic M1 receptor (Rattus norvegicus)    0.0
9  O=C(CCN1[C@@H]2CC[C@H]1C[C@@H](NC(c1ccc(F)cc1)c1ccc(F)cc1)C2)Nc1ccccc1  muscarinic M1 receptor (Rattus norvegicus)    1.0
